Biological target: T1, His/Avi-CynoIL18BP (recombinant cynomolgus IL-18BP with His and Avi tags) (cynomolgus monkey)
T1 construct: also called cynomolgus IL-18BP-Avi-His
T1 chain: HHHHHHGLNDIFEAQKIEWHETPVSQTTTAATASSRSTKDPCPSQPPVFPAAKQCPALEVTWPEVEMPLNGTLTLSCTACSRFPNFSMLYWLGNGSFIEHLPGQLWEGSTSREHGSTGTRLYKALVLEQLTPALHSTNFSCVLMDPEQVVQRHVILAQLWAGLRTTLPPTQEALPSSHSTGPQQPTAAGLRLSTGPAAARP
Assay: SPR Biacore T200, IgG captured on Protein A/G
ENDPOINT: koff (s⁻¹)
Numbers only; they are read as s⁻¹.

Some binders with known koff results, for comparison:
1) anti-IL-18BP antibody variant BP-04.05 (antibody, V domains shown) VH: QVQLVQSGAEVKKPGASVKVSCKASGYTFTDYDMHWVRQAPGQGLEWMGIISTYYGVVSYAQKKQGRVTMTRDKSTSTVYMELSSLRSEDTAVYYCARSGTYYYGTRESHAFDYWGQGTLVTVSS VL: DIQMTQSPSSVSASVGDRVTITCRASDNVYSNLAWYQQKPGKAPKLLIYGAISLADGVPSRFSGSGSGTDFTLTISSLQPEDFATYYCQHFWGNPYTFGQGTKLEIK; 0.00038
2) anti-IL-18BP antibody variant BP-04.09 (antibody, V domains shown) VH: QVQLVQSGAEVKKPGASVKVSCKASGYTFTDYDMHWVRQAPGQGLEWMGIYSTYYGVVSYAQKFQGRVTMTRDKSTSTVYMELSSLRSEDTAVYYCARSGTYYYGTRESHAFDYWGQGTLVTVSS VL: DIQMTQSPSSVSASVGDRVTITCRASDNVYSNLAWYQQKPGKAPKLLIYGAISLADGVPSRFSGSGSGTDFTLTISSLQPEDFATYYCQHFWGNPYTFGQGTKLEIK; 0.0006

Turning to the following binder.
Name the recorded koff of the binder listed here: anti-IL-18BP antibody variant BP-04.25 (antibody, V domains shown) VH: QVQLVQSGAEVKKPGASVKVSCKASGYTFTDYDMHWVRQAPGQGLEWMGIYSTYYGDVSYAQKFQGRVTMTRDKSTSTVYMELSSLRSEDTAVYYCARSGTYNYGTRESHALDYWGQGTLVTVSS VL: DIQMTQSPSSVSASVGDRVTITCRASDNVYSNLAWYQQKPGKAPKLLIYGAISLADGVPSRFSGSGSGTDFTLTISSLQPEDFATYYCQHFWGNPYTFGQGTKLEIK
0.022
